Tested on: K-562
Assay Explanation: SRB colorimetric assay of cell growth and viability, K-562
Assay type: cell-based, human
Cond: 48 hours exposure; read-out: LC50 K-562
Where a SMILES comes first, the peptide text is derived from it. Bridges are numbered along the chain shown (N, C = ends). [ ]: non-standard residue; d: D form. The star is where a group is joined. d(aIle) = CC[C@H](C)[C@@H](N)C(=O)O; d(aThr) = C[C@@H](O)[C@@H](N)C(=O)O; Hexanoyl(5-Me) = CC(C)CCCC(=O)*; Orn = NCCC[C@H](N)C(=O)O; Dhb = C/C=C(\N)C(=O)O
Value Type: CC50 (µM)

- Compound: "C/C=C1\\NC(=O)[C@H](Cc2ccccc2)NC(=O)[C@@H](C(C)C)NC(=O)[C@@H]([C@@H](C)CC)NC(=O)[C@H](NC(=O)[C@H](NC(=O)[C@H](CCCN)NC(=O)[C@H]2CCCN2C(=O)[C@H](NC(=O)[C@@H](NC(=O)[C@H](C)NC(=O)CCCC(C)C)C(C)C)C(C)C)[C@@H](C)CC)[C@@H](C)OC(=O)[C@H](C(C)C)NC1=O [Compound 52, [Ala^12, noD-Val^13]-KF] ({Hexanoyl(5-Me)}-AV[dV][dP][Orn][d(aIle)][d(aThr)][d(aIle)][dV]F[Dhb]V; ester 7-C)"
  Result Number: 7.41
- Compound: "C/C=C1\\NC(=O)[C@H](Cc2ccccc2)NC(=O)[C@@H](C(C)C)NC(=O)[C@@H]([C@@H](C)CC)NC(=O)[C@H](NC(=O)[C@H](NC(=O)[C@H](CCCN)NC(=O)[C@H]2CCCN2C(=O)[C@H](NC(=O)CNC(=O)[C@@H](NC(=O)[C@H](NC(=O)CCCC(C)C)C(C)C)[C@@H](C)O)C(C)C)[C@@H](C)CC)[C@@H](C)OC(=O)[C@H](C(C)C)NC1=O [Compound 42, [Gly^11]-KF] ({Hexanoyl(5-Me)}-[dV]TG[dV][dP][Orn][d(aIle)][d(aThr)][d(aIle)][dV]F[Dhb]V; ester 8-C)"
  Result Number: 6.96
